B1: library; numbered along this chain (parent)
chain: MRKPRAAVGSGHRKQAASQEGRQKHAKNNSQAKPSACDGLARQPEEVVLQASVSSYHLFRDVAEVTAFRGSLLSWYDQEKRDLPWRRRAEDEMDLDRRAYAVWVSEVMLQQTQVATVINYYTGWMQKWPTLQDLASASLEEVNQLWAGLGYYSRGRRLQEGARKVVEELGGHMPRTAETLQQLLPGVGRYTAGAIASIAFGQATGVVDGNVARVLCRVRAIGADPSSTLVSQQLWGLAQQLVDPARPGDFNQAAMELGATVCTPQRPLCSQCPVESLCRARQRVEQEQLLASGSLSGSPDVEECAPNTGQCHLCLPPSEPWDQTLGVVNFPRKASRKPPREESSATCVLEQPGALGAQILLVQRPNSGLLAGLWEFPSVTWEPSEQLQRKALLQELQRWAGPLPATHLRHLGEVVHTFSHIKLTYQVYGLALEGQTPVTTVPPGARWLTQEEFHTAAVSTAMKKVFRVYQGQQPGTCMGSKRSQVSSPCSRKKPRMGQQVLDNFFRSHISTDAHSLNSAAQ

# Variants of: B1
# run-description: 8OG:A repair function score (normalized; synonymous = 0, nonsense = -1) (normalized log-likelihood score); higher = more repair activity (WT-like);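 further: cells sorted at 72 h after reporter transfection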
# study-conditions: with 8OG:A DNA repair reporter (GFP) in HEK-293 MUTYH KO cells
Kind request: treat -0.2 as inclusive, so 8OG:A repair function score at -0.2 or higher is Met, anything lower is Not met.

[ask] Tell me whether 8OG:A repair function score is at least -0.2 here: L411M
[reply] Met

[ask] Tell me whether 8OG:A repair function score is at least -0.2 here: A162N
[reply] Not met

[ask] Tell me whether 8OG:A repair function score is at least -0.2 here: L180S
[reply] Not met

[ask] Tell me whether 8OG:A repair function score is at least -0.2 here: A41K
[reply] Met

[ask] Tell me whether 8OG:A repair function score is at least -0.2 here: A280T
[reply] Met

[ask] Tell me whether 8OG:A repair function score is at least -0.2 here: V284A
[reply] Met

[ask] Tell me whether 8OG:A repair function score is at least -0.2 here: R491Q
[reply] Met

[ask] Tell me whether 8OG:A repair function score is at least -0.2 here: Q43M
[reply] Met

[ask] Tell me whether 8OG:A repair function score is at least -0.2 here: R446A
[reply] Met

[ask] Tell me whether 8OG:A repair function score is at least -0.2 here: L432Y
[reply] Not met

[ask] Tell me whether 8OG:A repair function score is at least -0.2 here: A345M
[reply] Met

[ask] Tell me whether 8OG:A repair function score is at least -0.2 here: Q470W
[reply] Met

[ask] Tell me whether 8OG:A repair function score is at least -0.2 here: A67W
[reply] Met

[ask] Tell me whether 8OG:A repair function score is at least -0.2 here: S227L
[reply] Met

[ask] Tell me whether 8OG:A repair function score is at least -0.2 here: G148L
[reply] Not met

[ask] Tell me whether 8OG:A repair function score is at least -0.2 here: P442E
[reply] Met

[ask] Tell me whether 8OG:A repair function score is at least -0.2 here: T308M
[reply] Met

[ask] Tell me whether 8OG:A repair function score is at least -0.2 here: I359L
[reply] Met

[ask] Tell me whether 8OG:A repair function score is at least -0.2 here: E106P
[reply] Not met

[ask] Tell me whether 8OG:A repair function score is at least -0.2 here: L355G
[reply] Met

[ask] Tell me whether 8OG:A repair function score is at least -0.2 here: E303H
[reply] Met

[ask] Tell me whether 8OG:A repair function score is at least -0.2 here: A259L
[reply] Not met

[ask] Tell me whether 8OG:A repair function score is at least -0.2 here: M496V
[reply] Met

[ask] Tell me whether 8OG:A repair function score is at least -0.2 here: H410P
[reply] Not met

[ask] Tell me whether 8OG:A repair function score is at least -0.2 here: C278G
[reply] Not met

[ask] Tell me whether 8OG:A repair function score is at least -0.2 here: Q202D
[reply] Met

[ask] Tell me whether 8OG:A repair function score is at least -0.2 here: P338H
[reply] Met

[ask] Tell me whether 8OG:A repair function score is at least -0.2 here: R266A
[reply] Met

[ask] Tell me whether 8OG:A repair function score is at least -0.2 here: Y190G
[reply] Not met

[ask] Tell me whether 8OG:A repair function score is at least -0.2 here: P377R
[reply] Not met

[ask] Tell me whether 8OG:A repair function score is at least -0.2 here: Y152C
[reply] Not met

[ask] Tell me whether 8OG:A repair function score is at least -0.2 here: Y425W
[reply] Not met

[ask] Tell me whether 8OG:A repair function score is at least -0.2 here: P316C
[reply] Met

[ask] Tell me whether 8OG:A repair function score is at least -0.2 here: S71E
[reply] Met

[ask] Tell me whether 8OG:A repair function score is at least -0.2 here: D243R
[reply] Not met

[ask] Tell me whether 8OG:A repair function score is at least -0.2 here: F330M
[reply] Met

[ask] Tell me whether 8OG:A repair function score is at least -0.2 here: Q271G
[reply] Met

[ask] Tell me whether 8OG:A repair function score is at least -0.2 here: A162W
[reply] Not met

[ask] Tell me whether 8OG:A repair function score is at least -0.2 here: T204H
[reply] Not met

[ask] Tell me whether 8OG:A repair function score is at least -0.2 here: L289Q
[reply] Met

[ask] Tell me whether 8OG:A repair function score is at least -0.2 here: L131Y
[reply] Not met

[ask] Tell me whether 8OG:A repair function score is at least -0.2 here: V211C
[reply] Not met

[ask] Tell me whether 8OG:A repair function score is at least -0.2 here: R213L
[reply] Not met

[ask] Tell me whether 8OG:A repair function score is at least -0.2 here: C311Q
[reply] Not met

[ask] Tell me whether 8OG:A repair function score is at least -0.2 here: M93D
[reply] Met

[ask] Tell me whether 8OG:A repair function score is at least -0.2 here: A196M
[reply] Not met

[ask] Tell me whether 8OG:A repair function score is at least -0.2 here: L180F
[reply] Not met

[ask] Tell me whether 8OG:A repair function score is at least -0.2 here: P402D
[reply] Met

[ask] Tell me whether 8OG:A repair function score is at least -0.2 here: A253F
[reply] Not met

[ask] Tell me whether 8OG:A repair function score is at least -0.2 here: R156N
[reply] Met

[ask] Tell me whether 8OG:A repair function score is at least -0.2 here: S298C
[reply] Met

[ask] Tell me whether 8OG:A repair function score is at least -0.2 here: D224Y
[reply] Not met

[ask] Tell me whether 8OG:A repair function score is at least -0.2 here: W124V
[reply] Not met

[ask] Tell me whether 8OG:A repair function score is at least -0.2 here: V468Y
[reply] Met

[ask] Tell me whether 8OG:A repair function score is at least -0.2 here: Q50M
[reply] Met

[ask] Tell me whether 8OG:A repair function score is at least -0.2 here: L448K
[reply] Not met

[ask] Tell me whether 8OG:A repair function score is at least -0.2 here: S384Y
[reply] Not met

[ask] Tell me whether 8OG:A repair function score is at least -0.2 here: P84G
[reply] Not met

[ask] Tell me whether 8OG:A repair function score is at least -0.2 here: R283V
[reply] Met

[ask] Tell me whether 8OG:A repair function score is at least -0.2 here: L423H
[reply] Met

[ask] Tell me whether 8OG:A repair function score is at least -0.2 here: F466K
[reply] Not met

[ask] Tell me whether 8OG:A repair function score is at least -0.2 here: T424F
[reply] Met

[ask] Tell me whether 8OG:A repair function score is at least -0.2 here: D208G
[reply] Not met

[ask] Tell me whether 8OG:A repair function score is at least -0.2 here: S507W
[reply] Met

[ask] Tell me whether 8OG:A repair function score is at least -0.2 here: D77T
[reply] Met

[ask] Tell me whether 8OG:A repair function score is at least -0.2 here: A194V
[reply] Not met

[ask] Tell me whether 8OG:A repair function score is at least -0.2 here: S480A
[reply] Met

[ask] Tell me whether 8OG:A repair function score is at least -0.2 here: D133V
[reply] Met

[ask] Tell me whether 8OG:A repair function score is at least -0.2 here: L396K
[reply] Not met

[ask] Tell me whether 8OG:A repair function score is at least -0.2 here: S459C
[reply] Not met

[ask] Tell me whether 8OG:A repair function score is at least -0.2 here: C216E
[reply] Not met

[ask] Tell me whether 8OG:A repair function score is at least -0.2 here: F418V
[reply] Not met

[ask] Tell me whether 8OG:A repair function score is at least -0.2 here: G209S
[reply] Met

[ask] Tell me whether 8OG:A repair function score is at least -0.2 here: T455N
[reply] Met

[ask] Tell me whether 8OG:A repair function score is at least -0.2 here: D300M
[reply] Met

[ask] Tell me whether 8OG:A repair function score is at least -0.2 here: G123T
[reply] Met

[ask] Tell me whether 8OG:A repair function score is at least -0.2 here: S419T
[reply] Met

[ask] Tell me whether 8OG:A repair function score is at least -0.2 here: P377V
[reply] Met

[ask] Tell me whether 8OG:A repair function score is at least -0.2 here: E160A
[reply] Met

[ask] Tell me whether 8OG:A repair function score is at least -0.2 here: Q498Y
[reply] Met

[ask] Tell me whether 8OG:A repair function score is at least -0.2 here: P273D
[reply] Not met

[ask] Tell me whether 8OG:A repair function score is at least -0.2 here: E256V
[reply] Not met

[ask] Tell me whether 8OG:A repair function score is at least -0.2 here: V114R
[reply] Not met

[ask] Tell me whether 8OG:A repair function score is at least -0.2 here: W381G
[reply] Met

[ask] Tell me whether 8OG:A repair function score is at least -0.2 here: A99P
[reply] Not met

[ask] Tell me whether 8OG:A repair function score is at least -0.2 here: R86P
[reply] Not met

[ask] Tell me whether 8OG:A repair function score is at least -0.2 here: E382V
[reply] Met

[ask] Tell me whether 8OG:A repair function score is at least -0.2 here: A445M
[reply] Not met

[ask] Tell me whether 8OG:A repair function score is at least -0.2 here: H514S
[reply] Met

[ask] Tell me whether 8OG:A repair function score is at least -0.2 here: A212H
[reply] Not met

These measurements were taken from the supplement of paper PMC11908140.
